// data source = patent US20120164142A1

subject_of_test: human natriuretic peptide receptor B (NPR-B) (human) (UniProt P20594)
Sequence (P20594 23-1047): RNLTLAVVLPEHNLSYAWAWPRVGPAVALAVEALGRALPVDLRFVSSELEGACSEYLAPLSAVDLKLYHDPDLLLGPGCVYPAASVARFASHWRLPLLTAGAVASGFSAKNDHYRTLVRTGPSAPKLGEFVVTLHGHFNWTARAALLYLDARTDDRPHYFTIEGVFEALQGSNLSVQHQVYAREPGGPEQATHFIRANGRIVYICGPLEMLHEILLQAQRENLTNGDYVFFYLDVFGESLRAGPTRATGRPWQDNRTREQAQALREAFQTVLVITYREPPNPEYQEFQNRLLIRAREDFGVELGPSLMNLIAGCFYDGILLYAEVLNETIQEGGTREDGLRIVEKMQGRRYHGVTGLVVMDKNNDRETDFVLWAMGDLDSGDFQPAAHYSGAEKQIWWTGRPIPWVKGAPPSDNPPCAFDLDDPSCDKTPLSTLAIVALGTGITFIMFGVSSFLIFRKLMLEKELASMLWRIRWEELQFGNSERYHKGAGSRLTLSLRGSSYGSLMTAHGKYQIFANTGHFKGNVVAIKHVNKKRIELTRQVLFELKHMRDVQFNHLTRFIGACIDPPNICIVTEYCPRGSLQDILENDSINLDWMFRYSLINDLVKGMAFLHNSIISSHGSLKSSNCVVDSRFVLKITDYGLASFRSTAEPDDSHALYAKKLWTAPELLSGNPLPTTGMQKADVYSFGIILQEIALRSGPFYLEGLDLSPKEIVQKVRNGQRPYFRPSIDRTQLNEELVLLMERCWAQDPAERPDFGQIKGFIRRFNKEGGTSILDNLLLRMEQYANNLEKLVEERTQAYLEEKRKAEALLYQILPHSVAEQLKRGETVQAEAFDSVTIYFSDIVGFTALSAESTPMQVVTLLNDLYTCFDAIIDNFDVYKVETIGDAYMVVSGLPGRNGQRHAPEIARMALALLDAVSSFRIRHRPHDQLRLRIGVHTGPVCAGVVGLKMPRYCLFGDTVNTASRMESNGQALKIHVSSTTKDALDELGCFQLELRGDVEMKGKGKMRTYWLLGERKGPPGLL
experiment: cell-based or functional assay
reported_metric: % Efficacy (%)
Hi! Could you send only the number? It should be in %, unit omitted.

{"columns": ["binder", "% Efficacy / %"],
 "data": [
  ["EEEEEESGGGGSGGGQGANKQGLSKGCFGLKLDRIGSMSGLGC [C11(E6) [BC11]]", 95],
  ["GLSKGCFGLKLDRIGSMSGLGCGGGGSGGGGSGGGGDDDDDD [CNP-14AAlinker-D6 [C4]]", 156],
  ["EEEEEEHGPQGQEHPNARKYKGANKKGLSKGCFGLKLDRIGSMSGLGC [KA1(E6)]", 108],
  ["EEEEEEHKLRGQEHPNARKYKGANKKGLSKGCFGLKLDRIGSMSGLGC [KB1(E6)]", 109],
  ["EEEEEESGGGGSGGGKGANKKGLSKGCFGLKLDRIGSMSGLGC [C4(E6) [BC4]]", 136]
]}

Next up:
In: Annotate the binder EEEEEESGGGGSGGGQGANKKGLSKGCFGLKLDRIGSMSGLGC [C8(E6) [BC8]] with its measured % Efficacy.
Out: 97
